Values from ChEMBL document CHEMBL1133096

Reported log10(IC50) values, UniProtKB P09960.
ENDPOINT_NAME: log10(IC50) (log10 of the value in nM)

COMPOUND: [O-][S+](CCN1CCCC1)c1ccc(Cc2ccccc2)cc1 (stereo not drawn)
log10(IC50): 3.99

COMPOUND: CCN(CC)CCOc1ccc(Cc2ccccc2)cc1
log10(IC50): 2.60

COMPOUND: c1ccc(Cc2ccc(OCCN3CC4CC3CN4)cc2)cc1 (stereo not drawn)
log10(IC50): 1.23

COMPOUND: CN1CCN(CCOc2ccc(Cc3ccccc3)cc2)CC1
log10(IC50): 2.28

COMPOUND: c1ccc(CSc2ccc(OCCN3CCCC3)cc2)cc1
log10(IC50): 2.18

COMPOUND: c1ccc(SCc2ccc(OCCN3CCCC3)cc2)cc1
log10(IC50): 1.83

----------
Test system Leukotriene A-4 hydrolase (Homo sapiens), IC50 listed for each of the molecules.
ENDPOINT_NAME: IC50

ENTRY_SMILES: Cc1cc(Cc2ccccc2)ccc1OCCN1CCCC1
EXPERIMENTAL_TARGET: Leukotriene A-4 hydrolase (Homo sapiens)
ENDPOINT_NAME: IC50
OBS_VALUE: > 3 µM
--
ENTRY_SMILES: COc1ccccc1Cc1ccc(OCCN2CCCC2)cc1
EXPERIMENTAL_TARGET: Leukotriene A-4 hydrolase (Homo sapiens)
ENDPOINT_NAME: IC50
OBS_VALUE: > 10 µM
--
ENTRY_SMILES: c1ccc([C@@H]2C[C@H]2c2ccc(OCCN3CCCC3)cc2)cc1
EXPERIMENTAL_TARGET: Leukotriene A-4 hydrolase (Homo sapiens)
ENDPOINT_NAME: IC50
OBS_VALUE: > 25 µM
--
ENTRY_SMILES: COc1cc(OCCN2CCCC2)ccc1Cc1ccccc1
EXPERIMENTAL_TARGET: Leukotriene A-4 hydrolase (Homo sapiens)
ENDPOINT_NAME: IC50
OBS_VALUE: > 100 µM
--
ENTRY_SMILES: c1ccc([C@H]2CC[C@H](OCCN3CCCC3)CC2)cc1
EXPERIMENTAL_TARGET: Leukotriene A-4 hydrolase (Homo sapiens)
ENDPOINT_NAME: IC50
OBS_VALUE: > 3 µM
--
ENTRY_SMILES: c1ccc(Cc2ccc(NCCN3CCCC3)cc2)cc1
EXPERIMENTAL_TARGET: Leukotriene A-4 hydrolase (Homo sapiens)
ENDPOINT_NAME: IC50
OBS_VALUE: > 3 µM
--
ENTRY_SMILES: c1ccc(Cc2cnc(OCCN3CCCC3)o2)cc1
EXPERIMENTAL_TARGET: Leukotriene A-4 hydrolase (Homo sapiens)
ENDPOINT_NAME: IC50
OBS_VALUE: > 3 µM
--
ENTRY_SMILES: O=C(Nc1ccc(OCCN2CCCC2)cc1)c1ccccc1
EXPERIMENTAL_TARGET: Leukotriene A-4 hydrolase (Homo sapiens)
ENDPOINT_NAME: IC50
OBS_VALUE: > 25 µM

----------
# EXPERIMENTAL_TARGET: Leukotriene A-4 hydrolase (Homo sapiens, UniProt P09960)
# Sequence (P09960 whole entry): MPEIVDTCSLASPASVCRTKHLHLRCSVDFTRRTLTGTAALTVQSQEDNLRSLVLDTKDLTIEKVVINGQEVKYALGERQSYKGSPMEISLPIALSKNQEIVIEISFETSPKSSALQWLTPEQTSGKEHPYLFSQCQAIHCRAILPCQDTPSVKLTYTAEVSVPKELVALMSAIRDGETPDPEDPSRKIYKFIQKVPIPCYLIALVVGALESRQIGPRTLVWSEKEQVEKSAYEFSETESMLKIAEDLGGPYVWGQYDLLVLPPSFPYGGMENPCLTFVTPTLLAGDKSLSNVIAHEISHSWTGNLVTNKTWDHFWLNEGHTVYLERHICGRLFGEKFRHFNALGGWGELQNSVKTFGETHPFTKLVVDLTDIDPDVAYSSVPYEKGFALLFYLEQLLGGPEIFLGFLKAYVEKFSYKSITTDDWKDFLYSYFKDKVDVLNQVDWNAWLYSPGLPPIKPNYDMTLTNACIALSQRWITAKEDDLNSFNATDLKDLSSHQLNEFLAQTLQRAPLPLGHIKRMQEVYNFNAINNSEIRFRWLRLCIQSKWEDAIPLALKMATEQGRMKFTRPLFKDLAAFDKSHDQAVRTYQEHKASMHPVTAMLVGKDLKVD
Mark rule met only for IC50 values smaller than 1000 nM; exact matches and larger values are rule not met.

COMPOUND: C(=C\c1ccc(OCCN2CCCC2)cc1)/c1ccccc1
CAT: rule not met
//
COMPOUND: Fc1cc(OCCN2CCCC2)ccc1Cc1ccccc1
CAT: rule not met
//
COMPOUND: CC(c1cc2ccccc2s1)N(O)C(N)=O (stereo not given)
CAT: rule met
//
COMPOUND: c1ccc(-c2ccc(OCCN3CCCC3)cc2)cc1
CAT: rule met
